Ref: PubChem BioAssay

- Experiment notes: small-molecule binders of probe aNOTCH3, primary screen, biochemical, small-molecule microarray, 635/667 nm fluorescence (AID 1120);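 further: probe is a biotin-tagged antibody raised against NOTCH3 rather than NOTCH3 protein; score merges spot fluorescence near 667 nm with spot signal to noise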
- Test parameters: higher = more signal
Assay metric: composite z-score

Give the reported value of composite z-score for this record: CON(C)C(=O)C=C1C[C@@H](c2cccc(Cl)c2)O[C@@H](c2cccc(Cl)c2)O1
0.0897

Supply reported composite z-score belonging to this molecule: O=c1cccc(-c2ccc(C(F)(F)F)cc2)o1
-0.122

Hello, please tell me recorded composite z-score for this one: C[n+]1ccc(CCCO)cc1
0.182

Specify reported composite z-score for the molecule shown: CC(C)CNC(=O)[C@@H]1c2ccccc2C(=O)N(Cc2cc(F)cc(C(F)(F)F)c2)[C@H]1c1ccc(CO)cc1
0.0628

Fill in composite z-score for record [N-]=[N+]=NCc1ccccc1C[C@@]1(C(=O)NCCN2CCOCC2)N=C(c2ccc(OCCCO)cc2)O[C@@H]1c1ccccc1N=[N+]=[N-]
0.163

Please give the documented composite z-score of COCCCNC(=O)[C@]1(Cc2ccccc2CN=[N+]=[N-])N=C(c2ccc(OCCCO)cc2)O[C@@H]1c1ccccc1
0.289

For the molecule CCOC(=O)[C@H]1C/C=C/C[C@H](C(=O)OCC)C(=O)O[C@H]2[C@@H](OC)O[C@H](CO)[C@@H](OC(=O)CCc3ccccc3)[C@@H]2OC1=O , give its reported composite z-score.
0.996

Return composite z-score for the following molecule: Cc1c(NC(=O)/C(C#N)=C/C=C/c2ccc(N(C)C)cc2)c(=O)n(-c2ccccc2)n1C
0.308

* * *

- System under test: NADPH oxidase 5 (Homo sapiens)
- Experiment notes: NOX5-dependent H2O2 signal modulators, primary screen, NOX inhibitor project, cell-based, HEK293-NOX5, Amplex Red fluorescence (AID 1161)
- Test parameters: HEK293-NOX5, ionomycin, 45 min, higher = more signal
Each entry below carries its reported z-score.
Answer with a bare number; do not write a unit.

Check out these entries, answers already filled in.
CC1CC/C=C\[C@H]2OC34C=CCN(c5ccc6ccccc6c5)C(=O)[C@H]3N(C(CO)C(C)C)C(=O)[C@@H]4C2C(=O)O1 (some centres undefined) : 1.68
Cc1ccc(S[C@]2(C(=O)NC3CC3)CC(=O)N(Cc3ccccc3Cl)[C@@H]2c2ccc(CO)cc2I)cc1 : 1.12
CC=CC(O)C1C=CC2C(=O)N(c3ccccc3)C(=O)C2N1Nc1ccc([N+](=O)[O-])cc1 (centres undefined) : -0.909

# evaluate next
Tell me its z-score given [N-]=[N+]=Nc1ccccc1[C@@H]1OC(c2ccc(OCCCO)cc2)=N[C@]1(CCS(=O)(=O)c1ccccc1)C(=O)NCCN1CCOCC1 as the entry.
-1.84

* * *

- Test system: glycogen synthase kinase-3 (GSK3A per assay name; protocol says GSK3B)
- Experiment notes: GSK3 binders on small-molecule microarrays, primary screen, biochemical, small-molecule microarray, 635 nm fluorescence, GSK3A (AID 1103); further: the record names both GSK3A and GSK3B
- Test parameters: small-molecule microarray binding, fluorescence 635 nm; higher = more signal
The label depends only on composite z-score: label 1 if it is at least 0.07, label 0 if it is smaller.

Take a look at these entries with their results.
COc1ccc(NC(=O)O[C@H]2[C@H](OC(=O)Nc3ccc4c(c3)OCO4)[C@@H](OC(=O)Nc3ccc4c(c3)OCO4)[C@@H](OC)O[C@@H]2CO)cc1 : label 1
CC(C)CN1C(=O)[C@@]2(Cc3ccccc31)c1ccccc1C(=O)N(Cc1ccccc1C(F)(F)F)[C@H]2c1ccc(CO)cc1 : label 0
COc1ccc([Si](C)(C)[C@H]2[C@H](CCn3cc([C@H](O)c4ccccc4)nn3)O[C@@]3(C(=O)N(Cc4ccc(N5CCOC5=O)cc4)c4ccccc43)[C@@H]2C)cc1 : label 0
O=C(O)[C@H](Cc1ccccc1)n1cc(-c2ccccn2)nn1 : label 1
C=CCN1Cc2ccccc2C[C@@]2(N=C(c3ccc(OCCCO)cc3)O[C@H]2c2ccccc2)C1=O : label 1

API: above_or_equal(metric=composite z-score, cutoff=0.07) for item CC=CC(O)C1C=CC2C(=O)N(C)C(=O)C2N1Nc1ccc([N+](=O)[O-])cc1[N+](=O)[O-] (stereo not drawn)
label 0

In plain terms: is recorded composite z-score at least 0.07 for O=C1NC(=O)C2C1C=CC(C(O)c1ccc3c(c1)OCO3)N2Nc1ccccn1 (stereo not drawn) ?
label 0

Would you say COC(=O)[C@@]1(Cc2ccccc2)[C@H]2c3cc(C(=O)N4CCCC4)n(Cc4ccsc4Br)c3C[C@H]2CN1C(=O)c1ccccc1 shows composite z-score at minimum 0.07?
label 1

* * *

- Experiment notes: COS7 lysate on small-molecule microarray, probe aHis, 635 nm (AID 1123);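 further: z-score combines 667nm fluorescence intensity with signal-to-noise per printed compound spot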
- Test parameters: COS7 cell lysate, fluorescence, higher = more signal
Assay metric: composite z-score
// keep it numeric: no unit symbol after the value

Please review the entries below; each comes with its answer.
NC(=O)NCC#Cc1ccc2c(c1)[C@]1(C(=O)N2)[C@H](c2ccc(O)cc2)N2[C@H](c3ccccc3)[C@H](c3ccccc3)OC(=O)[C@H]2[C@@H]1C(=O)Nc1nc2ccccc2s1 : 0.66
CCCCC(CC)C(O)C1C=CC2C(=O)N(c3ccccc3)C(=O)C2N1Nc1ccc([N+](=O)[O-])cc1 (stereo not drawn) : 1.86

Provide composite z-score value for the following compound: C[C@H]1ON(c2ccc(C(=O)OC(C)(C)C)cc2)[C@@H](c2ccc(O)cc2)[C@@H]1C(=O)N1C(=O)OC[C@@H]1c1ccccc1
0.741

* * *

Catalogue of composite z-score readings, one per entry.
- Experiment notes: small-molecule microarray binders of probe aLefty2, primary screen, biochemical, biotinylated probe, 635/667 nm fluorescence (AID 1094);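 further: score merges spot fluorescence near 667 nm with spot signal-to-noise ratio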
- Test parameters: higher = more signal
// no unit string in output, number only

Guide cases for composite z-score, answers given:
CN1C(=O)C2C=CC(C(O)C3CCCCC3)N(N3CCCCC3)C2C1=O (configuration not stated) : 0.25
C=C(/C(=C/C[C@@H](OC(=O)c1ccncc1)c1ccc(OCCO)cc1)c1cc(C(=O)OC)ccc1OC)C(C)C : -0.317
C=CC1c2cc(O)c(OC)cc2CCN1Cc1sc2ccccc2c1Cl (configuration not stated) : 0.233
CN1C(=O)[C@@]2(CCS(=O)(=O)c3ccccc3)N=C(c3ccc(OCCCO)cc3)O[C@H]2c2ccccc21 : 0.276
COc1ccc([Si](C)(C)[C@H]2[C@H](CC(=O)N3Cc4ccccc4C[C@H]3CO)O[C@@]3(C(=O)N(Cc4cccc(N5CCCCC5=O)c4)c4ccccc43)[C@@H]2C)cc1 : 0.02

For the compound COCCOC(=O)N1C(=O)[C@@]2(c3cc(C#CC4(O)CCCCCC4)ccc31)[C@H](C(N)=O)[C@H]1C(=O)O[C@H](c3ccccc3)[C@H](c3ccccc3)N1[C@@H]2c1ccc(O)cc1 , report composite z-score.
-0.0009

Report measured composite z-score; entry is O=C(NC1CC1)[C@@H]1c2ccccc2C(=O)N(Cc2ccccc2)[C@H]1c1ccc(CO)cc1
-0.479

* * *

- Experiment notes: A549 cell viability effects, profiling panel, calcein-AM fluorescence, 48 h, basal (AID 1162); further: test concentration not given here
- Test parameters: higher = more signal
The label depends only on z-score: 1 if it is at least 0.03, 0 if it is smaller.

O=C(NC1CC1)[C@@H]1c2ccccc2C(=O)N(Cc2ccccc2)[C@H]1c1ccc(CO)cc1 : 1

# check: z-score of COCCOC(=O)N1C(=O)[C@@]2(c3cc(C#CC4(O)CCCCCC4)ccc31)[C@H](C(N)=O)[C@H]1C(=O)O[C@H](c3ccccc3)[C@H](c3ccccc3)N1[C@@H]2c1ccccc1OCCO is greater than or equal to 0.03
0

Assess whether reported z-score for Cc1ccc(S[C@]2(C(=O)NC(C)C)CC(=O)N(Cc3ccccc3C(F)(F)F)[C@@H]2c2ccc(CO)cc2I)cc1 sits at 0.03 or higher.
0

Check the entry C[C@H]1ON(c2ccc(C(=O)OC(C)(C)C)cc2)[C@@H](c2ccc(O)cc2)[C@@H]1C(=O)N1C(=O)OC[C@@H]1c1ccccc1 : does z-score equal or exceed 0.03?
0

Please check the record COc1ccc(NN2C(C(O)c3ccccn3)C=CC3C(=O)N(C4CCCCC4)C(=O)C32)cc1 (configuration not stated) and state if its z-score is at or above 0.03.
0

Decide: is the reported value of z-score for COc1cc(CO)cc(I)c1O[C@H]1C=C(C(=O)NCCO)C[C@@H](NCc2ccccc2F)[C@@H]1O equal to or greater than 0.03?
1

Given the entry C=CCOC(=O)[C@H]1[C@@H]2C(=O)O[C@@H](c3ccccc3)[C@@H](c3ccccc3)N2[C@@H](c2ccc(OCCOC(=O)[C@H]3C[C@H]4C(=O)N[C@@H](Cc5ccccc5)C(=O)N4[C@H]3c3ccc(O)cc3)cc2)[C@]12C(=O)Nc1ccc(I)cc12 , answer whether its z-score meets or surpasses 0.03.
0

Identify whether the reported z-score of the following compound is 0.03 or greater: CN(C)CCCCNC(=O)[C@H]1C[C@H]2C(=O)N[C@@H](CCCCN(C)C)C(=O)N2[C@H]1c1cccc(OCCO)c1
0

Can O=C1C[C@@](C(=O)NCC(F)(F)F)(c2ccc([N+](=O)[O-])cc2)[C@@H](c2ccc(CO)cc2)N1C1CCCCC1 be said to have z-score at or above 0.03?
0
